System: Staphylococcus aureus
Assay: Antibacterial activity against methicillin-resistant Staphylococcus aureus clinical isolate MRSA-23 measured after 16 to 18 hrs by CLSI method
Format: functional
Conditions: time 16-18 hrs
Measurement name: MIC (µg/mL)

# Compound, Study system, Measurement name, Prefix operator, Recorded result
records = [
    ("CCCN(CCC)CCCCCOc1ccc(C2CC(=O)c3c(OC)cc(OCCCCCN(CCC)CCC)c(CC=C(C)C)c3O2)cc1 (stereo not given)", "Staphylococcus aureus", "MIC", "=", 16),
    ("COc1cc(OCCCCN(CC(C)C)CC(C)C)c(CC=C(C)C)c2c1C(=O)CC(c1ccc(OCCCCN(CC(C)C)CC(C)C)cc1)O2 (stereo not given)", "Staphylococcus aureus", "MIC", ">", 128),
    ("COc1cc(OCCCCCN2CCOCC2)c(CC=C(C)C)c2c1C(=O)CC(c1ccc(OCCCCCN3CCOCC3)cc1)O2 (stereo not given)", "Staphylococcus aureus", "MIC", "=", 16),
    ("CCCC[N+](C)(CCCC)CCCCCOc1ccc(C2CC(=O)c3c(OC)cc(OCCCCC[N+](C)(CCCC)CCCC)c(CC=C(C)C)c3O2)cc1.[I-].[I-] (stereo not given)", "Staphylococcus aureus", "MIC", "=", 0.25),
    ("COc1cc(OCCCCCN2CCN(C)CC2)c(CC=C(C)C)c2c1C(=O)CC(c1ccc(OCCCCCN3CCN(C)CC3)cc1)O2 (stereo not given)", "Staphylococcus aureus", "MIC", "=", 16),
    ("COc1cc(OCCCN2CCN(C)CC2)c(CC=C(C)C)c2c1C(=O)CC(c1ccc(OCCCN3CCN(C)CC3)cc1)O2 (stereo not given)", "Staphylococcus aureus", "MIC", "=", 64),
    ("COc1cc(OCCCN2CCCC(C)C2)c(CC=C(C)C)c2c1C(=O)CC(c1ccc(OCCCN3CCCC(C)C3)cc1)O2 (stereo not given)", "Staphylococcus aureus", "MIC", "=", 32),
    ("CCCCN(CCCC)CCCCOc1ccc(C2CC(=O)c3c(OC)cc(OCCCCN(CCCC)CCCC)c(CC=C(C)C)c3O2)cc1 (stereo not given)", "Staphylococcus aureus", "MIC", "=", 8),
    ("COc1cc(OCCCCN2CCCC(C)C2)c(CC=C(C)C)c2c1C(=O)CC(c1ccc(OCCCCN3CCCC(C)C3)cc1)O2 (stereo not given)", "Staphylococcus aureus", "MIC", "=", 16),
    ("COc1cc(OCCCN2CCSCC2)c(CC=C(C)C)c2c1C(=O)CC(c1ccc(OCCCN3CCSCC3)cc1)O2 (stereo not given)", "Staphylococcus aureus", "MIC", ">", 128),
    ("COc1cc(OCCCN(CC(C)C)CC(C)C)c(CC=C(C)C)c2c1C(=O)CC(c1ccc(OCCCN(CC(C)C)CC(C)C)cc1)O2 (stereo not given)", "Staphylococcus aureus", "MIC", "=", 32),
    ("COc1cc(OCCCCCN2CCSCC2)c(CC=C(C)C)c2c1C(=O)CC(c1ccc(OCCCCCN3CCSCC3)cc1)O2 (stereo not given)", "Staphylococcus aureus", "MIC", ">", 128),
    ("COc1cc(OCCCCCN(CC(C)C)CC(C)C)c(CC=C(C)C)c2c1C(=O)CC(c1ccc(OCCCCCN(CC(C)C)CC(C)C)cc1)O2 (stereo not given)", "Staphylococcus aureus", "MIC", ">", 128),
    ("COc1cc(OCCCCN2CCOCC2)c(CC=C(C)C)c2c1C(=O)CC(c1ccc(OCCCCN3CCOCC3)cc1)O2 (stereo not given)", "Staphylococcus aureus", "MIC", "=", 32),
    ("COc1cc(O)c(CC=C(C)C)c2c1C(=O)CC(c1ccc(O)cc1)O2 (stereo not given)", "Staphylococcus aureus", "MIC", "=", 64),
]

###

Test: Cytotoxicity against human L02 cells assessed as cell viability at <=16 ug/ml by CCK-8 method relative to control
Type: toxicity, cell-based
Settings: up to 16 µg/mL, read-out: Activity

# Compound, viability, %
records = [
    ("CCCC[N+](C)(CCCC)CCCCCOc1ccc(C2CC(=O)c3c(OC)cc(OCCCCC[N+](C)(CCCC)CCCC)c(CC=C(C)C)c3O2)cc1.[I-].[I-] (stereo unspecified)", 100),
]

###

Test system: Staphylococcus aureus
Assay: Antibacterial activity against methicillin-resistant Staphylococcus aureus clinical isolate MRSA-23 measured after 16 to 18 hrs by CLSI method
Type: functional
Conditions: time 16-18 hrs
Listed here are compounds together with their documented MIC.
Measurement name: MIC (mg/L)

# Compound, Prefix operator, Recorded result
rows = [
    ("COc1cc(OCCCN2CCCCC2)c(CC=C(C)C)c2c1C(=O)CC(c1ccc(OCCCN3CCCCC3)cc1)O2 (stereo not drawn)", ">", 128),
    ("COc1cc(OCCCCCN2CCCCC2)c(CC=C(C)C)c2c1C(=O)CC(c1ccc(OCCCCCN3CCCCC3)cc1)O2 (stereo not drawn)", "=", 8),
    ("CCCN(CCC)CCCCOc1ccc(C2CC(=O)c3c(OC)cc(OCCCCN(CCC)CCC)c(CC=C(C)C)c3O2)cc1 (stereo not drawn)", "=", 16),
    ("COc1cc(OCCCCCN2CCCC(C)C2)c(CC=C(C)C)c2c1C(=O)CC(c1ccc(OCCCCCN3CCCC(C)C3)cc1)O2 (stereo not drawn)", "=", 8),
    ("COc1cc(OCCCCN2CCCCC2)c(CC=C(C)C)c2c1C(=O)CC(c1ccc(OCCCCN3CCCCC3)cc1)O2 (stereo not drawn)", "=", 16),
    ("COc1cc(OCCCCN2CCN(C)CC2)c(CC=C(C)C)c2c1C(=O)CC(c1ccc(OCCCCN3CCN(C)CC3)cc1)O2 (stereo not drawn)", "=", 32),
    ("COc1cc(OCCCCCN2CCCCC2C)c(CC=C(C)C)c2c1C(=O)CC(c1ccc(OCCCCCN3CCCCC3C)cc1)O2 (stereo not drawn)", "=", 16),
    ("CCCCN(CCCC)CCCOc1ccc(C2CC(=O)c3c(OC)cc(OCCCN(CCCC)CCCC)c(CC=C(C)C)c3O2)cc1 (stereo not drawn)", "=", 8),
]

###

Test: Toxicity in Kunming mouse assessed as survival rate at 80 mg/kg, sc measured after 24 hrs relative to control
Type: organism-based
Conditions: in vivo

# Molecule, survival at 24 h, %
records = [
    ("CCCC[N+](C)(CCCC)CCCCCOc1ccc(C2CC(=O)c3c(OC)cc(OCCCCC[N+](C)(CCCC)CCCC)c(CC=C(C)C)c3O2)cc1.[I-].[I-] (stereo unspecified)", 40),
]

###

Tested on: Staphylococcus aureus
Experiment: Antibacterial activity against methicillin-resistant Staphylococcus aureus clinical isolate MRSA-14 measured after 16 to 18 hrs by CLSI method
Assay type: functional
Settings: time 16-18 hrs
Measurement name: MIC

# Molecule, Recorded result
data = [
    ("COc1cc(OCCCCN2CCSCC2)c(CC=C(C)C)c2c1C(=O)CC(c1ccc(OCCCCN3CCSCC3)cc1)O2 (configuration not stated)", "> 128 µg/mL"),
    ("COc1cc(OCCCCCN2CCCCC2)c(CC=C(C)C)c2c1C(=O)CC(c1ccc(OCCCCCN3CCCCC3)cc1)O2 (configuration not stated)", "8 µg/mL"),
    ("COc1cc(OCCCN(CC(C)C)CC(C)C)c(CC=C(C)C)c2c1C(=O)CC(c1ccc(OCCCN(CC(C)C)CC(C)C)cc1)O2 (configuration not stated)", "64 µg/mL"),
    ("COc1cc(OCCCN2CCCC(C)C2)c(CC=C(C)C)c2c1C(=O)CC(c1ccc(OCCCN3CCCC(C)C3)cc1)O2 (configuration not stated)", "16 µg/mL"),
    ("COc1cc(OCCCCCN2CCCCC2C)c(CC=C(C)C)c2c1C(=O)CC(c1ccc(OCCCCCN3CCCCC3C)cc1)O2 (configuration not stated)", "16 µg/mL"),
    ("CCCCN(CCCC)CCCOc1ccc(C2CC(=O)c3c(OC)cc(OCCCN(CCCC)CCCC)c(CC=C(C)C)c3O2)cc1 (configuration not stated)", "4 µg/mL"),
    ("COc1cc(OCCCCN(CC(C)C)CC(C)C)c(CC=C(C)C)c2c1C(=O)CC(c1ccc(OCCCCN(CC(C)C)CC(C)C)cc1)O2 (configuration not stated)", "> 128 µg/mL"),
]

###

Listed here are compounds together with their documented MIC.
Test system: Staphylococcus aureus
Experiment: Antibacterial activity against methicillin-resistant Staphylococcus aureus clinical isolate MRSA-14 measured after 16 to 18 hrs by CLSI method
Format: functional
Conditions: time 16-18 hrs

# Compound, Study system, Unit tag, Prefix operator, MIC
rows = [
    ("CCCCN(CCCC)CCCCCOc1ccc(C2CC(=O)c3c(OC)cc(OCCCCCN(CCCC)CCCC)c(CC=C(C)C)c3O2)cc1 (stereo not drawn)", "Staphylococcus aureus", "µg/mL", "=", 4),
    ("CCCC[N+](C)(CCCC)CCCCOc1ccc(C2CC(=O)c3c(OC)cc(OCCCC[N+](C)(CCCC)CCCC)c(CC=C(C)C)c3O2)cc1.[I-].[I-] (stereo not drawn)", "Staphylococcus aureus", "µg/mL", "=", 0.5),
    ("COc1cc(O)c(CC=C(C)C)c2c1C(=O)CC(c1ccc(O)cc1)O2 (stereo not drawn)", "Staphylococcus aureus", "µg/mL", ">", 64),
    ("CCCN(CCC)CCCOc1ccc(C2CC(=O)c3c(OC)cc(OCCCN(CCC)CCC)c(CC=C(C)C)c3O2)cc1 (stereo not drawn)", "Staphylococcus aureus", "µg/mL", "=", 16),
    ("COc1cc(OCCCCN2CCOCC2)c(CC=C(C)C)c2c1C(=O)CC(c1ccc(OCCCCN3CCOCC3)cc1)O2 (stereo not drawn)", "Staphylococcus aureus", "µg/mL", "=", 64),
    ("COc1cc(OCCCCN2CCCCC2C)c(CC=C(C)C)c2c1C(=O)CC(c1ccc(OCCCCN3CCCCC3C)cc1)O2 (stereo not drawn)", "Staphylococcus aureus", "µg/mL", "=", 16),
    ("COc1cc(OCCCN2CCSCC2)c(CC=C(C)C)c2c1C(=O)CC(c1ccc(OCCCN3CCSCC3)cc1)O2 (stereo not drawn)", "Staphylococcus aureus", "µg/mL", ">", 128),
    ("COc1cc(OCCCN2CCN(C)CC2)c(CC=C(C)C)c2c1C(=O)CC(c1ccc(OCCCN3CCN(C)CC3)cc1)O2 (stereo not drawn)", "Staphylococcus aureus", "µg/mL", "=", 64),
]
